# experiment.summary: in vitro
# particulars: human, CAR-T cells
recorded.metric: viability at 4 day, 1000 nM
I'd appreciate it if you wrote the number followed by its unit.

Ask: For the molecule C[C@H]1C[C@@H]2[C@H]([C@@H](O)C[C@@]3(C)[C@H]2CC[C@]3(O)C(=O)CO)[C@@]2(C)C=CC(=O)C=C12 , what viability at 4 day, 1000 nM is on record?
Reply: 58.1%

###

# Tested on: phospho-STAT panel (pSTAT3/4/5), CD3+ T cells
# experiment.summary: phospho-STAT induction by IL-6, MesoScale Discovery phospho-STAT panel
# Type: cell-based, human
# particulars: lower dose titration, CD3+ T cells, IL-6 + drug 25 nM; MSD signal (No stim. 281, IL-6 alone 3624)
# Experimental: CD19 CAR-T, PBMC or CD3+ T cells (AllCells) were thawed and rested 0/N at 37° C. in R10 media. Cells were seeded at 700,000 cells/well and were either untreated or treated with 100 ng/ml IL6+drug at indicated concentrations for 20 minutes at 37° C. The cells were then washed with cold PBS and followed by 60 μl of Tris lysis buffer (provided by MSD) for 30 minutes on ice. […] Plates were washed and 1× read buffer added to each well and plates were read on the MSD instrument.
recorded.metric: pSTAT4
Answers are plain numbers.

Sample records with pSTAT4:
compound	pSTAT4
O=C(Nc1nc2cccc(-c3ccc(CN4CCS(=O)(=O)CC4)cc3)n2n1)C1CC1 [filgotinib]	3452
C[C@@H]1CCN(C(=O)CC#N)C[C@@H]1N(C)c1ncnc2[nH]ccc12 [tofacitinib]	1982
CC[C@@H]1CN(C(=O)NCC(F)(F)F)C[C@@H]1c1cnc2cnc3[nH]ccc3n12 [upadacitinib]	1248

Now take the following compound into account.
Ask: For the compound CCS(=O)(=O)N1CC(CC#N)(n2cc(-c3ncnc4[nH]ccc34)cn2)C1 [baricitinib] , what pSTAT4 is on record?
Reply: 1359
